- target desc: human S1P1 receptor (Homo sapiens, UniProt P21453)
- Construct: membranes used
- Sequence (P21453 whole entry): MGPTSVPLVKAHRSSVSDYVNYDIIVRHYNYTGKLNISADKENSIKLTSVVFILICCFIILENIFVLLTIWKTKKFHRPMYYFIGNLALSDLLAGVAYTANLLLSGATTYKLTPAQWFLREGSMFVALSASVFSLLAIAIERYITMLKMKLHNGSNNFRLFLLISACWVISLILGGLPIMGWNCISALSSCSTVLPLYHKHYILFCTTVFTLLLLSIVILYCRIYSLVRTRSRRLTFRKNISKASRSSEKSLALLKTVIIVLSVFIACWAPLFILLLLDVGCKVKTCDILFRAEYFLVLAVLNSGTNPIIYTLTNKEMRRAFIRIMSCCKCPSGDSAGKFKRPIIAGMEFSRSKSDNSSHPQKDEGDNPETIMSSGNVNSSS
- measurement description: GTP γ35S binding assay for S1P1 activity
- assay conditions: Activity potency: S1P1 receptor from GTP γ35S; membranes; test concentration range 0.08 to 5,000 nM
Measured EC50 by item
reported endpoint: EC50 (µM)

O=C(O)C1CN(Cc2ccc(CC/N=c3\scc(-c4ccccc4)n3-c3ccccc3)cc2)C1    0.297
O=C(O)C1CN(Cc2ccc(CCSc3ncc(-c4ccccc4)n3-c3ccccc3)cc2)C1    5.6

Attribution: patent US20140235613A1
